- test.protocol: Human HepG2 cell viability assay in 384 well format
- Assay type: toxicity, cell-based
- Parameters: dose 125 nL, time 70.5 hour; concentration not given beside the values
- condition: HepG2 cells, read-out: Inhibition
readout.name: cytotoxicity at 70.5 h (%)
Return type: number; implicit unit %.

- compound: "O=C(Cc1ccon1)NC1CCCN(c2ccccc2F)C1=O (stereo not drawn)"
  cytotoxicity at 70.5 h, %: 3.76
- compound: "Cc1ccc(N2CC[C@H]3O[C@H](C(=O)N4CCCCO4)CC[C@H]32)nn1"
  cytotoxicity at 70.5 h, %: -3.7

**Query** // cytotoxicity at 70.5 h lookup, key: COc1ccc(CN2CC(n3cccn3)C2)cc1F
**Result** -2.24

**Query** // cytotoxicity at 70.5 h lookup, key: CC(C)=CCN1C[C@H]2CC[C@@H]1CN(Cc1cc(=O)[nH]c(=O)[nH]1)C2
**Result** -3.94

**Query** // cytotoxicity at 70.5 h lookup, key: COc1cccc(-c2cccc(N3CCC(N[C@@H]4CCOC4)CC3)c2)c1
**Result** 2.44

**Query** // cytotoxicity at 70.5 h lookup, key: c1cc(CN2CCOCC3(CCN(CC4CCOCC4)CC3)C2)ccn1
**Result** -7.05

**Query** // cytotoxicity at 70.5 h lookup, key: CCn1cnc(NC(=O)N2CCC(c3ccc(Cl)cc3)C2)n1 (stereo not drawn)
**Result** 11.3

**Query** // cytotoxicity at 70.5 h lookup, key: CN(C)c1ccc(C(=O)N2CCCN(C3CCCCC3)CC2)cn1
**Result** -7.27

**Query** // cytotoxicity at 70.5 h lookup, key: Cc1cnc(CNc2ccc(C(=O)NCc3ccco3)cc2C)o1
**Result** 6.63

**Query** // cytotoxicity at 70.5 h lookup, key: Fc1cnc(N2CCCC3(COCCN(c4nccs4)C3)C2)nc1 (stereo not drawn)
**Result** -12.2
